- procedureSummary: in vivo
- experimentalConditions: female, Sprague-Dawley, rat, plasma, iv, 5 mg/kg
propertyName: clearance (mL/min/kg)
One number for each entry, in mL/min/kg.

Prompt: Hello, please tell me recorded clearance for this one: COc1cc(C(=O)c2c[nH]c(-c3ccc(Cl)cc3)n2)cc(OC)c1OC [12fa]
Response: 16

* * *

- Tested on: PPC-1
- procedureSummary: Cytotoxicity / cell growth inhibition, SRB assay
- experimentalConditions: Homo sapiens, PPC-1, 96 h, read-out: IC50 ± SEM (nM) PPC-1, Table 12; 96 h exposure
propertyName: IC50 (nM)
One number for each entry, in nM.

Prompt: Hello, please tell me recorded IC50 for this one: CN(C)c1ccc(-c2nc(C(=O)c3ccc(F)cc3)c[nH]2)cc1 [12gb]
Response: 4

* * *

- procedureSummary: in vivo
- experimentalConditions: female, Sprague-Dawley, rat, plasma, po, 10 mg/kg
propertyName: bioavailability (%)
Give bare numbers, in %.

Prompt: Hello, please tell me recorded bioavailability for this one: `COc1cc(C(=O)c2csc(Nc3ccc4[nH]ccc4c3)n2)cc(OC)c1OC`
Response: 33

* * *

- procedureSummary: in vivo
- experimentalConditions: female, Sprague-Dawley, rat, plasma, iv, 5 mg/kg
propertyName: Vd (L/kg)
One number for each entry, in L/kg.

Prompt: Hello, please tell me recorded Vd for this one: COc1cc(C(=O)c2c[nH]c(-c3ccc(Cl)cc3)n2)cc(OC)c1OC [12fa]
Response: 1.9

* * *

- procedureSummary: in vivo
- experimentalConditions: female, Sprague-Dawley, rat, plasma, oral, 10 mg/kg
propertyName: bioavailability (%)
Give bare numbers, in %.

Prompt: Hello, please tell me recorded bioavailability for this one: COc1cc(C(=O)c2csc(Nc3ccc4[nH]ccc4c3)n2)cc(OC)c1OC [compound 55]
Response: 33

* * *

- procedureSummary: in vivo
- experimentalConditions: male, ICR, mouse, plasma, iv, 10 mg/kg
propertyName: clearance (mL/min/kg)
Answers are plain numbers, in mL/min/kg.

Prompt: Hello, please tell me recorded clearance for this one: COc1cc(C(=O)c2c[nH]c(-c3ccc(Cl)cc3)n2)cc(OC)c1OC [12fa]
Response: 61

* * *

- Test system: LNCaP
- procedureSummary: Cytotoxicity / cell growth inhibition, SRB assay
- experimentalConditions: Homo sapiens, 96 h, read-out: IC50 ± SEM (nM) LNCaP, SRB assay, 96 h of treatment
propertyName: IC50 (nM)
Numbers only, in nM.

Prompt: Report its IC50 with LNCaP as the test system: `O=C(c1ccc2[nH]ccc2c1)c1csc(-c2cc3ccccc3[nH]2)n1`
Response: 103

* * *

- procedureSummary: in vivo
- experimentalConditions: male, ICR, mouse, plasma, iv, 10 mg/kg
propertyName: Vd (L/kg)
Numbers only, in L/kg.

Prompt: Hello, please tell me recorded Vd for this one: COc1cc(C(=O)c2c[nH]c(-c3ccc(Cl)cc3)n2)cc(OC)c1OC [12fa]
Response: 4
